Target: human CXCR3 (Homo sapiens)
Construct: expressed in transfected cells; host or cells: CHO cells (membrane preparation)
Sequence (P49682 whole entry): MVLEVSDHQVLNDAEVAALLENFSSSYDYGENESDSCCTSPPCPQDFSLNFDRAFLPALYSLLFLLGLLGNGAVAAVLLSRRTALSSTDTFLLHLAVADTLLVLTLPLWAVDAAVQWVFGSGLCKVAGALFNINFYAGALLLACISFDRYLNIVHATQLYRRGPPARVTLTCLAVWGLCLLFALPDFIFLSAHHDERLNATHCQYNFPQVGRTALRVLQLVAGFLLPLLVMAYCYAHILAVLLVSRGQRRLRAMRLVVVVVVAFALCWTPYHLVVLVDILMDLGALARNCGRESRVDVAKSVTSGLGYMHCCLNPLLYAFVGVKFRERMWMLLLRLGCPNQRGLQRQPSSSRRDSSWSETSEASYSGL
Assay: [35S]GTPγS exchange assay, CXCR3 receptor inhibition (hI-TAC-induced GTPγS-binding)
Assay type: biochemical
Conditions: -log IC50 (molar) inhibiting 50% of specific I-TAC-induced GTPγS-binding; membranes of human CXCR3-transfected CHO cells; read-out: pIC50 (converted)
MEASUREMENT_NAME: IC50 (µM)

(A) O=C1CCC(c2ccncc2)(C2CCN(Cc3cc4cc(Br)ccc4o3)CC2)C(=O)N1 (centres unmarked)
(B) COC(=O)CCN1C(=O)CCC(c2ccccc2)(C2CCN(Cc3ccc(Cl)cc3)CC2)C1=O (centres unmarked)
## Input For the two items A and B , which reports the higher IC50 value? Could you answer with the label of the item you picked?
## Output B

(a) O=C1CCC(c2cccnc2)(C2CCN(Cc3ccc(F)c(F)c3F)CC2)C(=O)N1 (centres unmarked)
(b) O=C1CCC(c2cccc(Cl)c2)(C2CCN(Cc3ccc(Br)cc3)CC2)C(=O)N1 (centres unmarked)
(c) Cc1cccc(C2(C3CCN(Cc4ccc(Cl)c(Cl)c4)CC3)CCC(=O)NC2=O)c1 (centres unmarked)
## Input Arrange the 3 entries by IC50 so the values rise. List the labels according to the requested ordering.
## Output a, b, c
(a: 1 µM, b: 1.58 µM, c: 3.16 µM)

(a) O=C1CCC(c2ccccc2)(C2CCN(Cc3ccc(F)cc3)CC2)CN1 (centres unmarked)
(b) O=C1CCC(c2cccc(Cl)c2)(C2CCN(Cc3ccc(Cl)s3)CC2)C(=O)N1 (centres unmarked)
(c) O=C1CCC(c2ccccc2)(C2CCN(Cc3ccc(OCc4ccccc4)cc3)CC2)C(=O)N1 (centres unmarked)
(d) COc1ccc(S(=O)(=O)O)cc1C1(C2CCN(Cc3ccc(Br)cc3)CC2)CCC(=O)NC1=O (centres unmarked)
## Input Arrange the 4 entries by IC50 so the values rise. List the labels according to the requested ordering.
## Output d, b, a, c
(d: 0.158 µM, b: 0.794 µM, a: 1.58 µM, c: 6.31 µM)

(1) O=C1CCC(c2cccc(C(F)(F)F)c2)(C2CCN(Cc3ccc(Br)cc3)CC2)C(=O)N1 (centres unmarked)
(2) O=C1CCC(c2cccc(C(=O)O)c2)(C2CCN(Cc3ccc(Cl)c(F)c3)CC2)C(=O)N1 (centres unmarked)
(3) CSc1ccc(CN2CCC(C3(c4cccc(Cl)c4)CCC(=O)NC3=O)CC2)cc1 (centres unmarked)
## Input Given 3 molecules, produce a descending ranking by IC50. List the labels according to the requested ordering.
## Output 3, 1, 2
